Experimental system: purified recombinant human GAC (GLS1) (Homo sapiens (Human))
Assay details: GLS1 Enzymatic Activity Assay (dual-coupled enzymatic assay, resorufin/Amplex UltraRed readout)
pIC50: −log10 of the molar value.
Observed property: pIC50

// worked examples, pIC50 included
Compound: CNC(=O)c1cn(CC(F)CCc2ccc(NC(=O)Cc3cc(C4CCOCC4)ccn3)nn2)nn1 (stereo not shown)
pIC50: > 7.00
//
Compound: CNC(=O)c1cn(CCCCc2ccc(NC(=O)OC3CCCCC3)nn2)nn1
pIC50: 6.30 to 7.00
//
Compound: O=C(NCC1CCCC1)c1cn(CCC(F)Cn2cc(C(=O)NCc3cc(C(F)(F)F)ccn3)nn2)nn1 (stereo not shown)
pIC50: > 7.00
//
Compound: O=C(CN1CCC(F)(F)C1)Nc1cn(CCCCn2cc(C(=O)NCc3cc(Cl)ccc3F)nn2)nn1
pIC50: 6.30 to 7.00
//
Compound: CNC(=O)c1cn(C[C@H](F)CCc2ccc(NC(=O)Cc3cc(OC4CCOCC4)ccn3)nn2)nn1
pIC50: > 7.00

stdin: Supply pIC50 value. Item: `O=C(Cc1cccc(OC(F)(F)F)c1)Nc1cn(CCCCn2cc(C(=O)NCc3ccccn3)nn2)nn1`
stdout: > 7.00

stdin: Find the measured pIC50 of `O=C(Cc1cc(Cl)ccc1F)Nc1cn(CCCCn2cc(C(=O)NCc3cc(OC(F)(F)F)ccc3F)nn2)nn1` and report it.
stdout: > 7.00

stdin: Fill in reported pIC50 for this entry: `O=C(NCc1cccc(OC(F)(F)F)c1)c1cn(CCCCc2nnc(C(=O)NCCO)s2)nn1`
stdout: 6.30 to 7.00

stdin: Indicate its recorded pIC50; the compound in question is `O=C(CC1CC1)Nc1cn(CCCCn2cc(C(=O)NCc3cccc(OC(F)(F)F)c3)nn2)nn1`
stdout: 6.30 to 7.00

----------
# key: entry, value: IC50
Experimental system: purified recombinant human GAC (GLS1) (Homo sapiens (Human))
Assay details: GLS1 Enzymatic Activity Assay (dual-coupled enzymatic assay, resorufin/Amplex UltraRed readout)

Below, 5 compounds whose answers are already recorded.
Compound: CC(C)CC(=O)NCc1cn(CCCCn2cc(C(=O)NCc3cccc(OC(F)(F)F)c3)nn2)nn1
Observed property: IC50
Reported result: 0.1 to 0.5 µM
//
Compound: O=C(Cc1ccc(OC(F)(F)F)cc1F)Nc1cn(CCCCn2cc(C(=O)NCc3ccccn3)nn2)nn1
Observed property: IC50
Reported result: < 0.1 µM
//
Compound: C[C@@H](NC(=O)c1cn(CCCCn2cc(C(=O)NCc3cc(C(F)(F)F)ccn3)nn2)nn1)c1ccccc1
Observed property: IC50
Reported result: 0.5 to 5 µM
//
Compound: Cc1ccc(CNC(=O)c2cn(CCCCn3cc(NC(=O)CN4CC(F)(F)C4)nn3)nn2)cn1
Observed property: IC50
Reported result: 0.5 to 5 µM
//
Compound: O=C(Cc1cccc(OC(F)(F)F)c1)Nc1nnc(CCC(F)Cn2cc(C(=O)NCC3COC3)nn2)s1 (stereo not drawn)
Observed property: IC50
Reported result: < 0.1 µM

stdin: Please report the measured IC50 for `O=C(NCc1ccc(C(F)(F)F)nc1)c1cn(CCCCn2cc(C(=O)NCc3cncc(C(F)(F)F)c3)nn2)nn1` tested on purified recombinant human GAC (GLS1) (Homo sapiens (Human)).
stdout: < 0.1 µM

stdin: Tell me its IC50 on purified recombinant human GAC (GLS1) (Homo sapiens (Human)): O=C(Cc1cccc(OC(F)(F)F)c1)Nc1cn(CC(F)CCn2cc(C(=O)NCc3ccc(C(F)(F)F)nc3)nn2)nn1 (stereo not drawn)
stdout: < 0.1 µM

stdin: Find IC50 for `O=C(CC1CCCCC1)Nc1cn(CCCCn2cc(C(=O)NCC3CCCCC3)nn2)nn1` on purified recombinant human GAC (GLS1) (Homo sapiens (Human)) and write it down.
stdout: 0.5 to 5 µM

stdin: Look up and report IC50, with purified recombinant human GAC (GLS1) (Homo sapiens (Human)) as system, for CC(=O)Nc1nnc(CCC(F)Cn2cc(C(=O)NCc3cccc(OC(F)(F)F)c3)nn2)s1 (stereo not drawn)
stdout: < 0.1 µM

stdin: Recall the reported IC50 of `CNC(=O)c1cn(CCCCc2ccc(NC(=O)Cc3cc(C4CCOCC4)ccn3)nn2)nn1` on purified recombinant human GAC (GLS1) (Homo sapiens (Human)) and write it down.
stdout: < 0.1 µM

stdin: For purified recombinant human GAC (GLS1) (Homo sapiens (Human)), give IC50 of the listed compound: O=C(NCc1cc(C(F)(F)F)ccn1)c1cn(CC(F)CCn2cc(C(=O)N[C@H](CO)c3ccccc3)nn2)nn1 (stereo partly drawn)
stdout: 0.1 to 0.5 µM

stdin: Name the recorded IC50 of `O=C(CN1CC(F)C1)Nc1cn(CCCCn2cc(C(=O)NCc3ccccn3)nn2)nn1` , assay system purified recombinant human GAC (GLS1) (Homo sapiens (Human)).
stdout: 0.5 to 5 µM

stdin: Answer briefly: IC50 recorded on purified recombinant human GAC (GLS1) (Homo sapiens (Human)) for O=C(NCc1cc(C(F)(F)F)ccn1)c1cn(CCC(F)Cn2cc(C(=O)NCc3cc(OC(F)(F)F)ccc3F)nn2)nn1 (stereo not drawn)
stdout: < 0.1 µM

stdin: Lab note: purified recombinant human GAC (GLS1) (Homo sapiens (Human)) assay, enter IC50 for `O=C(Cc1ccccn1)Nc1nnc(CC[C@H](F)Cn2cc(C(=O)NCc3cc(OC(F)(F)F)ccc3F)nn2)s1` here
stdout: < 0.1 µM

stdin: Give IC50 only, for O=C(NCc1ccc(OC(F)(F)F)cc1)c1cn(CCC(F)Cn2cc(C(=O)NCc3cc(C(F)(F)F)ccn3)nn2)nn1 (stereo not drawn) , using purified recombinant human GAC (GLS1) (Homo sapiens (Human)) data.
stdout: < 0.1 µM

----------
Experimental system: purified recombinant human GAC (GLS1) (Homo sapiens (Human), UniProt O94925)
Sequence (O94925 other isoform, or with tags, fused parts or gaps): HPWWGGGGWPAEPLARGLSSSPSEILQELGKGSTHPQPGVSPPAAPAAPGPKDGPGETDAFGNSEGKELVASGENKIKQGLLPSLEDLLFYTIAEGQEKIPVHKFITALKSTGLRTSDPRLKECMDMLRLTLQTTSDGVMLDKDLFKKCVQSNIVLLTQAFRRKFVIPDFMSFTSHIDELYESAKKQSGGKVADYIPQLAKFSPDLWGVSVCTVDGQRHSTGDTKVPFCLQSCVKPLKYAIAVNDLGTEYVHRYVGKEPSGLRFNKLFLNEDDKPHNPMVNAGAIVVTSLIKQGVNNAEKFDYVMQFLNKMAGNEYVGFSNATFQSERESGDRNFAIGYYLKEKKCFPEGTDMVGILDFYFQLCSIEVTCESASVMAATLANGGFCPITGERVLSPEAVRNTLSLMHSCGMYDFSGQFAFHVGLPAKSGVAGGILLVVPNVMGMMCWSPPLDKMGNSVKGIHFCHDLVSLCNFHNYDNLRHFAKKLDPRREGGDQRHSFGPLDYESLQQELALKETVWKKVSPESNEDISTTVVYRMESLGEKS
Assay details: GLS1 Enzymatic Activity Assay (dual-coupled enzymatic assay, resorufin/Amplex UltraRed readout);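 further: glutamate from GAC coupled via glutamate oxidase and peroxidase to resorufin, read as fluorescence (ex 530, em 590 nm) kinetically or at 20 min, four-parameter logistic IC50 fit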
Observed property: IC50

Compound: CNC(=O)c1cn(CCC(F)Cn2cc(C(=O)NCc3ccc(C)nc3)nn2)nn1 (stereo not drawn) [Example 187]
IC50: 0.1 to 0.5 µM
//
Compound: O=C(CC1CCCC1)Nc1cn(CCCCn2cc(C(=O)NCC3CCCC3)nn2)nn1 [Example 288]
IC50: 0.1 to 0.5 µM
//
Compound: Cc1ccc(CNC(=O)c2cn(CCC(F)Cn3cc(NC(=O)CN4CC(F)C4)nn3)nn2)cn1 (stereo not drawn) [Example 374]
IC50: 0.1 to 0.5 µM

stdin: Tell me measured IC50 for O=C(NCc1cc(OC(F)(F)F)ccc1F)c1cn(CCCCc2ccc(NC(=O)C3CC3)nn2)nn1 [Example 591] please.
stdout: < 0.1 µM

stdin: Identify measured IC50 corresponding to O=C(NCc1ccccc1)c1nnc(CCCCc2ccc(NC(=O)[C@@H](O)c3ccccc3)nn2)s1 [Example 29]
stdout: < 0.1 µM

----------
Experimental system: purified recombinant human GAC (GLS1) (Homo sapiens (Human))
Assay details: GLS1 Enzymatic Activity Assay (dual-coupled enzymatic assay, resorufin/Amplex UltraRed readout)
Observed property: IC50

Take a look at these entries with their results.
Molecule: CNC(=O)c1cn(C[C@H](F)CCc2ccc(NC(=O)Cc3cc(C(F)(F)C4CC4)ccn3)nn2)nn1 [Example 267]
Experimental system: purified recombinant human GAC (GLS1) (Homo sapiens (Human))
Observed property: IC50
Reported result: < 100 nM
//
Molecule: CNC(=O)c1cn(CCCCc2ccc(NC(=O)CN3CCN(c4ccccc4OC(F)(F)F)CC3=O)nn2)nn1 [Example 249]
Experimental system: purified recombinant human GAC (GLS1) (Homo sapiens (Human))
Observed property: IC50
Reported result: < 100 nM
//
Molecule: O=C(Cc1cccc(OC(F)(F)F)c1)Nc1nnc(CCCCn2cc(C(=O)NCC3CCOC3)nn2)s1 (stereo not drawn) [Example 12]
Experimental system: purified recombinant human GAC (GLS1) (Homo sapiens (Human))
Observed property: IC50
Reported result: < 100 nM
//
Molecule: O=C(NCc1ccccn1)c1cn(CCCCc2nnc(C(=O)NCc3ccccn3)s2)nn1 [Example 66]
Experimental system: purified recombinant human GAC (GLS1) (Homo sapiens (Human))
Observed property: IC50
Reported result: 500 to 5000 nM
//
Molecule: O=C(CC1CCCCC1)Nc1cn(CCCCn2cc(C(=O)NCC3CC3)nn2)nn1 [Example 305]
Experimental system: purified recombinant human GAC (GLS1) (Homo sapiens (Human))
Observed property: IC50
Reported result: 500 to 5000 nM
//
Molecule: O=C(NCc1cc(C(F)(F)F)ccn1)c1cn(CC(F)CCc2nnc(C(=O)NCCC(F)(F)F)s2)nn1 (stereo not drawn) [Example 511]
Experimental system: purified recombinant human GAC (GLS1) (Homo sapiens (Human))
Observed property: IC50
Reported result: 100 to 500 nM

stdin: For purified recombinant human GAC (GLS1) (Homo sapiens (Human)), give the measured IC50 of the entry O=C(Cc1cccc(OC(F)(F)F)c1)Nc1nnc(CCC(F)Cn2cc(C(=O)NCc3cncc(C(F)(F)F)c3)nn2)s1 (stereo not drawn) [Example 496]
stdout: < 100 nM

These entries and their values trace back to patent US10344025B2.
